# Target Under Test: IDO1 (Homo sapiens, UniProt P14902)
# Sequence (P14902 whole entry): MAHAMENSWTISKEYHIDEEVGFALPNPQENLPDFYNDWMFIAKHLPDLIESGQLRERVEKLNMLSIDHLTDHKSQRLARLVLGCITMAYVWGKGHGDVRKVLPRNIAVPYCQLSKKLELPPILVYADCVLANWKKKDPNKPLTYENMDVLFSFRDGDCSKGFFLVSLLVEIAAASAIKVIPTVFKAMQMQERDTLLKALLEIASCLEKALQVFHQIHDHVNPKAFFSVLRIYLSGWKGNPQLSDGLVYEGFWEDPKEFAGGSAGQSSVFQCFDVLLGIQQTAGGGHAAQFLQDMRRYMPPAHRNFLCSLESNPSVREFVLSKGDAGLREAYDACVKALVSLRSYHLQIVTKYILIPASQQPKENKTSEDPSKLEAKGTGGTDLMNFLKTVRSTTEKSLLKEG
# Experiment Notes: Cellular IDO1 activity assay in IFN-γ induced MDA-MB-231 cells
# Settings: IDO1 expression induced by human IFN-γ (50 ng/mL); mean of three
Measured Attribute: pEC50
// pEC50: -log10(molar conc.)

Consider the following illustrative entries.
>>> numeric_value("NS(=O)(=O)NCCNC(=O)c1n[nH]nc1-c1ccc(F)c(F)c1 [Compound 4k]")
7.11
>>> numeric_value("NC(=O)c1n[nH]nc1-c1ccc(F)c(F)c1 [Compound 3i]")
7.13
>>> numeric_value("CCOC(=O)c1n[nH]nc1-c1ccccc1 [Compound 2a]")
5.49
>>> numeric_value("CCOC(=O)c1n[nH]nc1-c1ccc(F)c(F)c1 [Compound 2i]")
6.79
>>> numeric_value("O=C(O)c1n[nH]nc1-c1ccc(F)c(F)c1 [Compound 4a]")
5.91
>>> numeric_value("CCOC(=O)c1n[nH]nc1-c1ccc(Cl)c(Cl)c1 [Compound 2j]")
6.80
>>> numeric_value("NC(=O)c1n[nH]nc1-c1ccc(Cl)c(Cl)c1 [Compound 3j]")
7.28
>>> numeric_value("NC(=O)c1n[nH]nc1-c1ccccc1 [Compound 3a]")
5.89
>>> numeric_value("O=C(N/C(Cc1ccc(O)cc1)=N\\O)c1n[nH]nc1-c1ccc(F)c(F)c1 [Compound 4i]")
7.06

Next compound, pEC50 to be filled in.
Q: For NS(=O)(=O)NCCNC(=O)c1n[nH]nc1-c1ccc(Cl)c(Cl)c1 [Compound 4l] , what is its reported pEC50?
Result: 7.08

* * *

# Target Under Test: IDO1 (Homo sapiens)
# Experiment Notes: Kynurenine assay by HPLC analysis, IDO1
# Assay type: biochemical
# Set-up: made in house; host or cells: Escherichia coli M15 (pQE30 vector with pREP4 plasmid)
# Settings: HPLC; 800 nM
# binarize % Of inhibition for IDO1 enzyme: threshold 60% inclusive, high side y, low side n

Consider the following illustrative entries.
>>> qualitative_label("NC(=O)c1n[nH]nc1-c1ccc(F)c(F)c1")
"y"
>>> qualitative_label("NC(=O)c1n[nH]nc1-c1ccc(Cl)c(Cl)c1")
"y"
>>> qualitative_label("O=C(N/C(Cc1ccc(O)cc1)=N\\O)c1n[nH]nc1-c1ccc(F)c(F)c1")
"n"
>>> qualitative_label("O=C(O)c1n[nH]nc1-c1ccc(F)c(F)c1")
"n"

Now take the following molecule into account.
Q: Decide: % Of inhibition for IDO1 enzyme of CCOC(=O)c1n[nH]nc1-c1ccc(Cl)c(Cl)c1 >= 60%?
Result: n

* * *

# Target Under Test: IDO1 (Homo sapiens, UniProt P14902)
# Experiment Notes: Circular dichroism analysis of IDO1 enzyme
# Set-up: made in house; host or cells: Escherichia coli M15 (pQE30 vector with pREP4 plasmid)
# Settings: compound 2 µM
# Procedure: The Circular Dichroism (CD) spectra of the IDO1 enzyme in the absence or presence of compounds were recorded with a Jasco-810-spectropolarimeter according to the reported procedure[37],[38]. […] Spectra were recorded by varying the concentration of the compound (250 nM to 4 µM) using a 1 mL quartz cuvette of 1 cm path length with a Jasco J-1500 spectropolarimeter at 17 °C. […] The % of the secondary structures of the IDO1 enzyme was analyzed using the inbuilt software of the instrument.
Reported % of Secondary structural elements, Beta values for a set of compounds
Answer with the number, then the unit.

Q: For NS(=O)(=O)NCCNC(=O)c1n[nH]nc1-c1ccc(F)c(F)c1 , what is its reported % of Secondary structural elements, Beta?
Result: 0%

Q: Now try NC(=O)c1n[nH]nc1-c1ccc(F)c(F)c1 .
Result: 0%

Q: Now try O=C(N/C(Cc1ccc(O)cc1)=N\O)c1n[nH]nc1-c1ccc(F)c(F)c1 .
Result: 0%

Q: Now try CCOC(=O)c1n[nH]nc1-c1ccc(F)c(F)c1 .
Result: 0%

* * *

# Target Under Test: purified human TDO enzyme (Homo sapiens)
# Construct: 6xHis (N); made in house; host or cells: Escherichia coli BL21 (DE3) (pET 28a vector)
# Experiment Notes: TDO inhibition assay by the spectrometric method
# Format: biochemical
# Settings: spectrophotometric; 4 µM
Reported % of Enzyme inhibition (TDO) values for a set of compounds
Dear colleague, please return just the value in %, with no unit written.

Q: For CCOC(=O)c1n[nH]nc1-c1ccc(F)c(F)c1 , what is its reported % of Enzyme inhibition (TDO)?
Result: 15

Q: Now try NC(=O)c1n[nH]nc1-c1ccc(F)c(F)c1 .
Result: 26

Q: Now try NC(=O)c1n[nH]nc1-c1ccc(Cl)cc1 .
Result: 27

Q: Now try O=C(O)c1n[nH]nc1-c1ccc(F)c(F)c1 .
Result: 18

Q: Now try CCOC(=O)c1n[nH]nc1-c1ccc(Cl)cc1 .
Result: 28

* * *

# Target Under Test: TDO enzyme (Homo sapiens, UniProt P48775)
# Construct: 6xHis (N); made in house; host or cells: Escherichia coli BL21 (DE3) (pET 28a vector)
# Sequence (P48775 whole entry): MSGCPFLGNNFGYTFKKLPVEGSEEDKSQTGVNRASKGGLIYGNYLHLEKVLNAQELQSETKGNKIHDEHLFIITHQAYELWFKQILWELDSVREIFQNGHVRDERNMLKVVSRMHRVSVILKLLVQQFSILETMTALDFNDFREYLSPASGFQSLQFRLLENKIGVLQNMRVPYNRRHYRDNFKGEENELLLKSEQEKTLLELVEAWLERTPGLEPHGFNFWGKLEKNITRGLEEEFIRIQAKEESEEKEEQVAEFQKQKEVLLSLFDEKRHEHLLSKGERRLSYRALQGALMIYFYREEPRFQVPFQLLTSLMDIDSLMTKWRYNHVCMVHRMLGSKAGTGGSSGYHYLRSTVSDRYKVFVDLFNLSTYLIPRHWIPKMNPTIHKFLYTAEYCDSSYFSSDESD
# Experiment Notes: HPLC based TDO inhibition assay
# Type: biochemical
# Settings: 800 nM
Reported inhibition at 0.8 µM values for a set of compounds
Dear colleague, please return just the value in %, with no unit written.

Consider the following illustrative entries.
>>> numeric_value("NC(=O)c1n[nH]nc1-c1ccccc1 [Compound 3a]")
17
>>> numeric_value("CCOC(=O)c1n[nH]nc1-c1ccccc1 [Compound 2a]")
49
>>> numeric_value("NS(=O)(=O)NCCNC(=O)c1n[nH]nc1-c1ccc(Cl)c(Cl)c1 [Compound 4l]")
22

Next compound, inhibition at 0.8 µM to be filled in.
Q: For NS(=O)(=O)NCCNC(=O)c1n[nH]nc1-c1ccc(F)c(F)c1 [Compound 4k] , what is its reported inhibition at 0.8 µM?
Result: 46

* * *

# Target Under Test: IDO1 (Homo sapiens, UniProt P14902)
# Experiment Notes: Kynurenine assay by HPLC analysis, IDO1
# Format: biochemical
# Design: made in house; host or cells: Escherichia coli M15 (pQE30 vector with pREP4 plasmid)
# Settings: HPLC; 160 nM
# binarize % Of inhibition for IDO1 enzyme: threshold 50% inclusive, high side rule met, low side rule not met

Consider the following illustrative entries.
>>> qualitative_label("CCOC(=O)c1n[nH]nc1-c1ccc(F)c(F)c1")
"rule not met"
>>> qualitative_label("NC(=O)c1n[nH]nc1-c1ccc(F)c(F)c1")
"rule not met"
>>> qualitative_label("CCOC(=O)c1n[nH]nc1-c1ccc(Cl)c(Cl)c1")
"rule not met"
>>> qualitative_label("O=C(O)c1n[nH]nc1-c1ccc(F)c(F)c1")
"rule not met"
>>> qualitative_label("O=C(N/C(Cc1ccc(O)cc1)=N\\O)c1n[nH]nc1-c1ccc(F)c(F)c1")
"rule not met"

Now take the following compound into account.
Q: Decide: % Of inhibition for IDO1 enzyme of NC(=O)c1n[nH]nc1-c1ccc(Cl)c(Cl)c1 >= 50%?
Result: rule met

* * *

Reported % of Secondary structural elements, Random values for a set of molecules
# Target Under Test: IDO1 (Homo sapiens, UniProt P14902)
# Experiment Notes: Circular dichroism analysis of IDO1 enzyme
# Design: made in house; host or cells: Escherichia coli M15 (pQE30 vector with pREP4 plasmid)
# Settings: compound 1 µM
Dear colleague, please return just the value in %, with no unit written.

Consider the following illustrative entries.
>>> numeric_value("O=C(N/C(Cc1ccc(O)cc1)=N\\O)c1n[nH]nc1-c1ccc(F)c(F)c1")
40.6
>>> numeric_value("NC(=O)c1n[nH]nc1-c1ccc(F)c(F)c1")
35.8
>>> numeric_value("NS(=O)(=O)NCCNC(=O)c1n[nH]nc1-c1ccc(F)c(F)c1")
33.9

Next molecule, % of Secondary structural elements, Random to be filled in.
Q: For CCOC(=O)c1n[nH]nc1-c1ccc(F)c(F)c1 , what is its reported % of Secondary structural elements, Random?
Result: 33.5

* * *

# Target Under Test: TDO enzyme (Homo sapiens)
# Construct: 6xHis (N); made in house; host or cells: Escherichia coli BL21 (DE3) (pET 28a vector)
# Experiment Notes: HPLC based TDO inhibition assay
# Type: biochemical
# Settings: 32 nM
Measured Attribute: inhibition at 0.032 µM
Answer with the number, then the unit.

Consider the following illustrative entries.
>>> result("CCOC(=O)c1n[nH]nc1-c1ccccc1")
"9%"
>>> result("NS(=O)(=O)NCCNC(=O)c1n[nH]nc1-c1ccc(F)c(F)c1")
"13%"
>>> result("NC(=O)c1n[nH]nc1-c1ccccc1")
"3%"

Q: For NS(=O)(=O)NCCNC(=O)c1n[nH]nc1-c1ccc(Cl)c(Cl)c1 , what is its reported inhibition at 0.032 µM?
Result: 14%
